// data source = patent US9382295B2

Assay: Rat pharmacokinetics, iv and po dosing, whole blood and plasma
Type: in vivo
Details: plasma, po 10 mg/kg, mean
Method: Rat pharmacokinetic data was obtained for example 2, following iv dosing at 1 mg/kg and po dosing at 10 mg/kg and individual analysis of plasma and whole blood samples at various time points was carried out.
quantityKind: AUC(0-inf) (ng·h/mL)
Respond numerically; units are ng·h/mL and should not be typed.

[in] Query: AUC(0-inf); subject: CC(C)CC1NC(=O)[C@H](CC(C)C)N(C)C(=O)CN(C)C(=O)C([C@@H](C)O)NC(=O)C([C@H](O)[C@H](C)CCN2CCOCC2)N(C)C(=O)C(C(C)C)N(C)C(=O)C(CC(C)C)NC(=O)C(CC(C)C)N(C)C(=O)C(C(C)C)OC(=O)C(C)NC(=O)C(CC(C)C)N(C)C1=O (stereo in doubt)
[out] 2290
